IC50 values, listed per item
# SYSTEM TESTED: human IGF-IR (Homo sapiens, UniProt P08069)
# Construct: complete human IGF-IR cDNA: GenBank Acc; No. NM_000875
# Sequence (P08069 31-1367): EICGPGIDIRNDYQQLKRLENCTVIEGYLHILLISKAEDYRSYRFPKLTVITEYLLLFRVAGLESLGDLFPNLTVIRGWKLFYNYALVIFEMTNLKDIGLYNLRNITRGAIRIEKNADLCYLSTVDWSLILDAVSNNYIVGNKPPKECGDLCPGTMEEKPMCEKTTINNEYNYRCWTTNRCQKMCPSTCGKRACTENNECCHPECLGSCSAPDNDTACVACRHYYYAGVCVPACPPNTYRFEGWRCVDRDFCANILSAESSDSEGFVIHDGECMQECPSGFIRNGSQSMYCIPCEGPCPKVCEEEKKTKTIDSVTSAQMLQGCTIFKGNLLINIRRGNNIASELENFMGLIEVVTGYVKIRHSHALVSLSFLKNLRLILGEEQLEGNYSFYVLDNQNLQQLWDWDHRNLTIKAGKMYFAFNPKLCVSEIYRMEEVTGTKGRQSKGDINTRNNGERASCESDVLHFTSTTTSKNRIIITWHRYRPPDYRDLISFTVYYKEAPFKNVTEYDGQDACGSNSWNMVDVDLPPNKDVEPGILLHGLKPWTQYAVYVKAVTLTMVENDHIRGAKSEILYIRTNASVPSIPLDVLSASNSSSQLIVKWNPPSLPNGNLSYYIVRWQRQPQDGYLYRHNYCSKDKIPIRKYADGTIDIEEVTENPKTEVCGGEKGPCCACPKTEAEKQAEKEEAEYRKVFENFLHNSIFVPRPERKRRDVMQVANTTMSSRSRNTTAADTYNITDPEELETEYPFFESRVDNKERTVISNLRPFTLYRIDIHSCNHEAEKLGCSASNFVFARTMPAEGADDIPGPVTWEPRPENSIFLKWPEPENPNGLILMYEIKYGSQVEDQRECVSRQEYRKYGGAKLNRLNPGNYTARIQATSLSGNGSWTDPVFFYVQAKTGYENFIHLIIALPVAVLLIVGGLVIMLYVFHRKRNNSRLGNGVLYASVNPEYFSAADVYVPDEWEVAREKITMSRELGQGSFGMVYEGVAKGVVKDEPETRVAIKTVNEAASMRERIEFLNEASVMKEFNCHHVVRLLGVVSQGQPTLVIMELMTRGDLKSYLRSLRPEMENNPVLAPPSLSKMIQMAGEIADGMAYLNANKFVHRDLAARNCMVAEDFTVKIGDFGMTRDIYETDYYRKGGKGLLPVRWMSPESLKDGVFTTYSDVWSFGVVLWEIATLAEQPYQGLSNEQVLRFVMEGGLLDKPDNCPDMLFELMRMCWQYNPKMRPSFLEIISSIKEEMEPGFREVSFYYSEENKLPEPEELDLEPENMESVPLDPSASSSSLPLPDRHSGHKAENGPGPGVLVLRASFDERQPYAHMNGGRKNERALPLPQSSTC
# PROCEDURE SUMMARY: cellular "Capture ELISA": IGF-I induced IGF-IR autophosphorylation
# SETUP CONDITIONS: NIH-3T3 mouse fibroblasts transfected with human IGF-IR cDNA, 90 min compound, 10 ng/ml IGF-I for 10 min
# number only, unit nM dropped from output

Field request: IC50 | item: COC(=O)NC[C@H]1C[C@H](n2cc(-c3cccc(OCc4ccccc4)c3)c3c(N)ncnc32)C1 80

Then what about the compound Nc1ncnc2c1c(-c1cccc(OCc3ccccc3)c1)cn2[C@H]1C[C@@H](CNC(=O)CN2CCCCC2)C1 ? 18

Then what about the compound Cc1c(-c2cccc(OCc3ccccc3)c2)c2c(N)ncnc2n1[C@H]1C[C@H](CN2CCC2)C1 ? 140

Then what about the compound COC(=O)NC[C@H]1C[C@@H](n2cc(-c3cccc(OCc4ccccc4)c3)c3c(N)ncnc32)C1 ? 31
